Target: T1, alpha-amylase (Homo sapiens, UniProt P0DUB6 P0DUB6:16-511)
T1 sequence: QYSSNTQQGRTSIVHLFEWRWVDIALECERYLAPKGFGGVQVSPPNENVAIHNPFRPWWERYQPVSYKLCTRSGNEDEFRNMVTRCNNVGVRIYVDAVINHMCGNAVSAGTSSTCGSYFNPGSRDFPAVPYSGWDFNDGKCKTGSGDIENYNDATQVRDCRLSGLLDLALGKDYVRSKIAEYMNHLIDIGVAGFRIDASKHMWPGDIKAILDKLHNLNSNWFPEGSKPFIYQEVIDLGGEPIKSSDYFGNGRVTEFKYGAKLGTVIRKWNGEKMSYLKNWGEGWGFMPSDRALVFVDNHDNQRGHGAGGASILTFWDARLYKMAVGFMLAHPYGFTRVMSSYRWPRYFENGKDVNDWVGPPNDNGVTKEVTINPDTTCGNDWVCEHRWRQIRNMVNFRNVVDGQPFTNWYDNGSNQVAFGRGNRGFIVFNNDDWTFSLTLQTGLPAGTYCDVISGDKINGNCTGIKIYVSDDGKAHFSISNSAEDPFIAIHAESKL
Test: SPR; SPR buffer with 1 mM MgCl2, pH 7.4; Chi2 10.58
Settings: tags: none stated; commercial human alpha-amylase, Lee Biosolutions; label: 3' poly(dA)20 captured on biotin-poly(dT)20
Method: Biotinylated poly(dT) at 5 μmol/L was injected to a flow cell of the sensor chip using ultrapure water (DDW), and the binding was allowed to proceed until the signal intensity (RU: Resonance Unit) reached about 900 RU. The biotinylated poly(dT) was prepared by biotinylating the 5′ end of 20-mer deoxythymidine. […] With 0 seconds being the start of the injection, the mean value of signal intensities from 115 seconds to 125 seconds was determined. […]
result_type: Kd
Your reply should be a number followed by the unit it is expressed in.

For the binder AML1243KR8m1_KS9-3_mini (ssDNA, KS9 modified T (formula 1) at all T) DNA: GTGAACGACGTGAATAGTGTTTGTGGGTCCGGAGTTAAAAAAAAAAAAAAAAAAAA , what Kd is on record?
0.607 nM
